B1: PLAGL1 (parent)
chain: DPNKMAFGCEECGKKYNTMLGYKR

# Variants of: B1
# ASSAY METHOD TEXT: protein stability index of a GFP-peptide fusion (GPS, HEK-293T) (PSI 1-6); higher = more stable;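 also: lentivirally expressed fusions sorted by FACS into six bins by GFP to DsRed ratio, PSI derived from sequencing read proportions per bin multiplied by bin number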
# RUN CONDITIONS: c terminus: a fixed tail appended
MEASUREMENT TYPE: protein stability index
Answers are plain numbers.

L20G | 2.46
M5K | 2.26
M5W | 2.35
G13F | 1.93
M5S | 2.81

// input: 4 variants below; output: protein stability index for each
1. Y22V
2. N17W
3. C9A
4. G21M

1: 2.94; 2: 1.76; 3: 3.38; 4: 2.06
